method.notes: chemical genetic growth profiling, strain panel (AID 1159580);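 also: tested at 20 µM; growth read once vehicle control cultures reached saturation at 30 °C; 1 = growth at the plate median or of vehicle wells; lower values mean less growth of the strain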
run.conditions: S. cerevisiae deletion strains, growth OD, locus YGL078C, strain dbp3
The campaign covered roughly 5,500 compounds. About 2,000 (36%) were called active. Roughly 18% stayed inconclusive and do not appear here. Rule as the data show it: active = normalized growth mostly below about 0.91 (no sharp cut-off); inconclusive = no clear call, values can overlap the other calls; inactive = mostly above about 0.92. The list shows a part of the results.
Return exactly one item of active, inactive

Please review the entries below; each comes with its answer.
CCN(CC)CCOc1ccc2c(c1)C(=O)c1cc(OCCN(CC)CC)ccc1-2: inactive
O=C(O[C@@H]1Cc2c(O)cc(O)cc2O[C@@H]1c1cc(O)c(O)c(O)c1-c1c([C@H]2Oc3cc(O)cc(O)c3C[C@H]2O)cc(O)c(O)c1O)c1cc(O)c(O)c(O)c1: inactive
C1CCN2CC3CC(CN4CCCCC34)C2C1 (stereo not drawn): inactive
CC/C(=C(\c1ccccc1)c1ccc(OCCN(C)C)cc1)c1ccccc1: active
CC1(C)C(O)CC(O)C2(C)C1CC(O)C1(C)C2CCC2(C)C(c3ccoc3)CC3OC321 (stereo not drawn): inactive
COC(=O)Oc1ccccc1C(=O)O: inactive
CC1(C)C(=O)C=CC2(C)C3CCC4(C)C(c5ccoc5)CC5OC54C3C(O)CC12 (stereo not drawn): inactive
CSCCC(NC=O)C(=O)NC(C)C(=O)O (stereo not drawn): inactive

Task: Status in this test for O=C1CCCC2C3CC(CN12)[C@@H]1CCCCN1C3 (stereo partly drawn) ?
Result: inactive

Task: Field: outcome | Entry: CNc1ccccc1C(=O)O
Result: inactive

###

method.notes: chemical genetic growth profiling, strain panel (AID 1159580);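 also: tested at 20 µM; growth read once vehicle control cultures reached saturation at 30 °C; 1 = growth at the plate median or of vehicle wells; lower values mean less growth of the strain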
run.conditions: S. cerevisiae deletion strains, growth OD, locus YDR392W, strain spt3, hits give low values
About 2,000 (36%) of roughly 5,500 compounds were called active. Inconclusive results (about 18%) are left out. The list shows a part of the results.
quantity.measured: normalized growth
Numbers only.

Consider the worked cases shown below.
CC(=O)O[C@@H]1CC2C(C)(C)C=CC(=O)[C@]2(C)C2CC[C@@]3(C)[C@H](c4ccoc4)OC(=O)C4OC43[C@@]21C (stereo not given in full): 0.963
O=C(O)CF: 0.981
CC(=O)O[C@@H]1C[C@@]2(C)[C@H](c3ccoc3)C[C@H]3O[C@]32[C@]2(C)C(=O)C(O)=C3C(C)(C)C(=O)C=C[C@]3(C)C12 (stereo not given in full): 0.326
CCCCC1=NC2(CCCC2)C(=O)N1Cc1ccc(-c2ccccc2-c2nn[nH]n2)cc1: 1.01

The measured normalized growth associated with OC[C@@H](O)[C@@H](O[C@@H]1O[C@H](CO)[C@@H](O)[C@H](O)[C@H]1O)[C@H](O)[C@@H](O)CO reads 0.951

###

method.notes: chemical genetic growth profiling, strain panel (AID 1159580);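 also: tested at 20 µM; growth read once vehicle control cultures reached saturation at 30 °C; 1 = growth at the plate median or of vehicle wells; lower values mean less growth of the strain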
run.conditions: S. cerevisiae deletion strains, growth OD, locus YMR231W, strain pep5, hits give low values
Hit rate of the full screen: of about 5,500 compounds, about 2,000 (36%) were called active. Inconclusive results (about 18%) are left out. Some of the results follow.
quantity.measured: normalized growth
One number for each entry.

CO[C@H]1/C=C/O[C@@]2(C)Oc3c(C)c(O)c4c(O)c(c(/C=N/N5CCN(C)CC5)c(O)c4c3C2=O)NC(=O)/C(C)=C\C=C\C(C)[C@H](O)[C@@H](C)[C@@H](O)[C@@H](C)[C@@H](OC(C)=O)[C@@H]1C (some centres not stated): 1.02

The value of normalized growth measured for the compound CO[C@H]1/C=C/O[C@@]2(C)Oc3c(C)c(O)c4c(O)c(c5c(nc6cc(C)ccn65)c4c3C2=O)NC(=O)/C(C)=C\C=C\[C@H](C)[C@H](O)[C@@H](C)C(O)[C@@H](C)[C@H](OC(C)=O)[C@@H]1C (some centres not stated) turned out to be 1.04
